Assignment: determine reported BUN for the given compounds.
- Organism: Rattus norvegicus
- experiment notes: Open TG-GATES - Regimen: Single
- Type: toxicity, organism-based, Sprague-Dawley
- Design: regimen Single, gender Male, age 6 weeks
- condition parameters: in vivo, po, 100 mg/kg, 6 h, tissue Plasma, route gavage, dose level Low
Write the numeric value and follow it with the unit.

Use these answered entries as a reference point.
O=C(O)c1cc(/N=N/c2ccc(S(=O)(=O)Nc3ccccn3)cc2)ccc1O | 10.2 mg/dL
O=C(O)c1cn(C2CC2)c2cc(N3CCNCC3)c(F)cc2c1=O | 10.8 mg/dL
CCc1cc(C(N)=S)ccn1 [ETHIONAMIDE] | 15.6 mg/dL

Let us examine a further case.
Inquiry: Which BUN value belongs to C[C@H](CS)C(=O)N1CCC[C@H]1C(=O)O ?
Reply text: 17.4 mg/dL

----------
- Species: Rattus norvegicus
- experiment notes: Open TG-GATES - Regimen: Daily Repeat
- Type: toxicity, organism-based, Sprague-Dawley
- Parameters: regimen Daily Repeat, gender Male, age 6 weeks
- condition parameters: in vivo, po, 0 mg/kg, […], tissue Blood, route gavage, dose level Control, time 14 day
Exercise: for every item that follows, state its recorded RBC.
Kindly write the number and append the unit.

CCCC(CCC)C(=O)O [VALPROIC ACID] | 695 x10_4/ul
C[C@H](CS)C(=O)N1CCC[C@H]1C(=O)O [CAPTOPRIL] | 694.8 x10_4/ul
COc1ccc2c(c1)c(CC(=O)O)c(C)n2C(=O)c1ccc(Cl)cc1 [INDOMETHACIN] | 691.2 x10_4/ul
Clc1ccccc1CN1CCc2sccc2C1 [TICLOPIDINE] | 681.2 x10_4/ul
NC(=O)N1c2ccccc2C=Cc2ccccc21 [CARBAMAZEPINE] | 700.4 x10_4/ul

The record that follows has no RBC shown yet.
Inquiry: RBC for O=C(O)c1cn(C2CC2)c2cc(N3CCNCC3)c(F)cc2c1=O [CIPROFLOXACIN] ?
Reply text: 669.4 x10_4/ul

----------
- Species on record: Rattus norvegicus
- experiment notes: Open TG-GATES - Regimen: Single
- Type: toxicity, organism-based, Sprague-Dawley
- Parameters: regimen Single, gender Male, age 6 weeks
- condition parameters: in vivo, po, 100 mg/kg, 9 h, tissue Plasma, route gavage, dose level Low
Could you please report measured ALT for the items listed next?
Numbers only, in IU/L.

Worked examples, 3 compounds total:
CCc1cc(C(N)=S)ccn1 [ETHIONAMIDE] | 33.8
O=C(O)c1cc(/N=N/c2ccc(S(=O)(=O)Nc3ccccn3)cc2)ccc1O [SULFASALAZINE] | 35.4
Clc1ccccc1CN1CCc2sccc2C1 [TICLOPIDINE] | 29.6

Batch of 2 compounds: report ALT for each.
1. O=C(O)c1cn(C2CC2)c2cc(N3CCNCC3)c(F)cc2c1=O [CIPROFLOXACIN]
2. C[C@H](CS)C(=O)N1CCC[C@H]1C(=O)O [CAPTOPRIL]

Reply text:
33.6
30.6

----------
- Organism: Rattus norvegicus
- experiment notes: Open TG-GATES - Regimen: Daily Repeat
- Format: toxicity, organism-based, Sprague-Dawley
- Set-up: regimen Daily Repeat, gender Male, age 6 weeks
- condition parameters: in vivo, po, 0 mg/kg, […], tissue Blood, route gavage, dose level Control, time 7 day
quantity kind: MCH (pg)
One number for each entry, in pg.

Use these answered entries as a reference point.
NC(=O)N/N=C/c1ccc([N+](=O)[O-])o1 | 21.1
Cn1c(=O)c2[nH]cnc2n(C)c1=O.O | 20.9
CCCC(CCC)C(=O)O | 21.2
O=C(O)c1cn(C2CC2)c2cc(N3CCNCC3)c(F)cc2c1=O | 20.8
CSc1ccc2c(c1)N(CCC1CCCCN1C)c1ccccc1S2 (centres undefined) | 21.7

The following molecules each have a reported value; give each one's MCH.
1. C[C@H](CS)C(=O)N1CCC[C@H]1C(=O)O
2. COc1ccc(Cc2nccc3cc(OC)c(OC)cc23)cc1OC
3. COc1ccc2c(c1)c(CC(=O)O)c(C)n2C(=O)c1ccc(Cl)cc1
4. O=C(O)c1cc(/N=N/c2ccc(S(=O)(=O)Nc3ccccn3)cc2)ccc1O
5. CC(=O)Oc1ccccc1C(=O)O

Reply text:
1: 21.1; 2: 21; 3: 20.9; 4: 21.5; 5: 21.1

----------
- Species: Rattus norvegicus
- experiment notes: Open TG-GATES - Regimen: Single
- Type: toxicity, organism-based, Sprague-Dawley
- Parameters: regimen Single, gender Male, age 6 weeks
- condition parameters: in vivo, po, 1000 mg/kg, 24 h, tissue Plasma, route gavage, dose level High
Kindly supply the reported K values for the records listed here.
Give bare numbers, in meq/L.

// worked examples, K included
CCc1cc(C(N)=S)ccn1 [ETHIONAMIDE] | 3.9
O=C(O)c1cc(/N=N/c2ccc(S(=O)(=O)Nc3ccccn3)cc2)ccc1O | 3.8
Clc1ccccc1CN1CCc2sccc2C1 | 3.8
C[C@H](CS)C(=O)N1CCC[C@H]1C(=O)O | 4.5

Inquiry: I'd like to know its K. The molecule in question is O=C(O)c1cn(C2CC2)c2cc(N3CCNCC3)c(F)cc2c1=O
Reply text: 4.6

----------
Record form. Attribute: ALP. Fill in for each entry.
- Organism: Rattus norvegicus
- experiment notes: Open TG-GATES - Regimen: Single
- Format: toxicity, organism-based, Sprague-Dawley
- Design: regimen Single, gender Male, age 6 weeks
- condition parameters: in vivo, po, 1000 mg/kg, 24 h, tissue Plasma, route gavage, dose level High
One number for each entry, in IU/L.

Examples with answers:
Clc1ccccc1CN1CCc2sccc2C1 | 1071.8
O=C(O)c1cc(/N=N/c2ccc(S(=O)(=O)Nc3ccccn3)cc2)ccc1O | 925.2
CCc1cc(C(N)=S)ccn1 [ETHIONAMIDE] | 839.2
O=C(O)c1cn(C2CC2)c2cc(N3CCNCC3)c(F)cc2c1=O | 1158.6

Now for the compound whose ALP we want.
Inquiry: Query (compound): C[C@H](CS)C(=O)N1CCC[C@H]1C(=O)O ; field requested: ALP
Reply text: 971.2

----------
For each of the compounds below, state its MCHC.
- Organism: Rattus norvegicus
- experiment notes: Open TG-GATES - Regimen: Single
- Format: toxicity, organism-based, Sprague-Dawley
- Parameters: regimen Single, gender Male, age 6 weeks
- condition parameters: in vivo, po, 100 mg/kg, 24 h, tissue Blood, route gavage, dose level Low
Answers are plain numbers, in %.

C[C@H](CS)C(=O)N1CCC[C@H]1C(=O)O | 33.2
O=C(O)c1cn(C2CC2)c2cc(N3CCNCC3)c(F)cc2c1=O | 33.4
CCc1cc(C(N)=S)ccn1 [ETHIONAMIDE] | 33.8
Clc1ccccc1CN1CCc2sccc2C1 | 35.5

Inquiry: # input compound: O=C(O)c1cc(/N=N/c2ccc(S(=O)(=O)Nc3ccccn3)cc2)ccc1O ; wanted: its MCHC
Reply text: 34.4

----------
- Species on record: Rattus norvegicus
- experiment notes: Open TG-GATES - Regimen: Single
- Assay type: toxicity, organism-based, Sprague-Dawley
- Design: regimen Single, gender Male, age 6 weeks
- condition parameters: in vivo, po, 300 mg/kg, 9 h, tissue Blood, route gavage, dose level Middle
For each of the molecules below, state its APTT.
Give bare numbers, in s.

C[C@H](CS)C(=O)N1CCC[C@H]1C(=O)O [CAPTOPRIL] | 15.9

I would be grateful if you could provide APTT for each of the following entries.
1. O=C(O)c1cn(C2CC2)c2cc(N3CCNCC3)c(F)cc2c1=O [CIPROFLOXACIN]
2. O=C(O)c1cc(/N=N/c2ccc(S(=O)(=O)Nc3ccccn3)cc2)ccc1O [SULFASALAZINE]
3. Clc1ccccc1CN1CCc2sccc2C1 [TICLOPIDINE]

Reply text:
1: 16.9; 2: 19.2; 3: 18.8

Inquiry: Entry under review: CCc1cc(C(N)=S)ccn1 [ETHIONAMIDE] . Reported APTT?
Reply text: 18.1

----------
- Species: Rattus norvegicus
- experiment notes: Open TG-GATES - Regimen: Single
- Format: toxicity, organism-based, Sprague-Dawley
- Design: regimen Single, gender Male, age 6 weeks
- condition parameters: in vivo, po, 300 mg/kg, 9 h, tissue Kidney, route gavage, dose level Middle
Can you tell me KIDNEY_L for the items I'm about to list?
Write the numeric value and append its unit.

Here's what some known entries look like.
O=C(O)c1cn(C2CC2)c2cc(N3CCNCC3)c(F)cc2c1=O | 0.8 g
Clc1ccccc1CN1CCc2sccc2C1 | 0.9 g

Please state, for each entry, its recorded KIDNEY_L.
1. C[C@H](CS)C(=O)N1CCC[C@H]1C(=O)O
2. O=C(O)c1cc(/N=N/c2ccc(S(=O)(=O)Nc3ccccn3)cc2)ccc1O
3. CCc1cc(C(N)=S)ccn1 [ETHIONAMIDE]

Reply text:
1 g
0.9 g
1 g
